measured target: truncated form of human Choline kinase α1 that includes residues 75-457 (Homo sapiens, UniProt P35790)
Construct: made in house
Sequence (P35790 75-457): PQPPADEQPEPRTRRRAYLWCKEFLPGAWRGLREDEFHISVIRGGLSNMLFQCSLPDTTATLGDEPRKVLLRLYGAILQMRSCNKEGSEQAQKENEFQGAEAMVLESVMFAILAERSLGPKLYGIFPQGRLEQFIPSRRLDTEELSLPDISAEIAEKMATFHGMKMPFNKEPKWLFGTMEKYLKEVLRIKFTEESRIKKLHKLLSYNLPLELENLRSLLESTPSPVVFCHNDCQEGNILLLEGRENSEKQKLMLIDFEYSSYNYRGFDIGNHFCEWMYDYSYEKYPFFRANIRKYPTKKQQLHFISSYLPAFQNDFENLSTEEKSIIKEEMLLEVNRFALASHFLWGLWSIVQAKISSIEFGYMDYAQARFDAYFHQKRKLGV
assay comment: Kinase Assay, coupled (ATP regeneration) LDH/PK assay, NADH absorbance
Format: biochemical
stated conditions: Examples designated with an asterisk (*): version 1 of the Kinase Assay, 200 nM enzyme; read-out: IC50
pIC50: −log10 of the molar value.
Listed here are compounds together with their documented pIC50.

Here's what some known entries look like.
compound	pIC50
CN1CCCN(Cc2ccc(CN3CCN(CCO)CC3)cc2)CC1 [Example 147]	> 4.30
COc1ccc(NCc2ccc(CN3CCCN(C)CC3)cc2)cc1 [Example 151]	> 4.30
CN1CCCN(Cc2ccc(-n3cccn3)cc2F)CC1 [Example 142]	> 6.70
C=CCN1CCN(Cc2ccc(CN3CCCN(C)CC3)cc2)CC1 [Example 146]	> 4.30
CN1CCCN(Cc2ccc(-c3ccccn3)cc2)CC1 [Example 141]	> 4.30
CN1CCCN(Cc2ccc(CNc3cccc(C(N)=O)c3)cc2)CC1 [Example 152]	> 6.70

// next entry
Exercise: Provide one value: measured pIC50 of CN1CCCN(Cc2ccc(N3CCS(=O)(=O)CC3)cc2)CC1 [Example 145]
Solution: > 4.30

====

measured target: truncated form of human Choline kinase α1 that includes residues 75-457 (Homo sapiens, UniProt P35790)
Construct: made in house
assay comment: Kinase Assay, coupled (ATP regeneration) LDH/PK assay, NADH absorbance
Assay type: biochemical
stated conditions: Examples designated with an asterisk (*): version 1 of the Kinase Assay, 200 nM enzyme; read-out: IC50
measurement name: IC50

line notation	measurement name	result
CN1CCCN(Cc2ccc(-c3ccc(CC(=O)O)cc3)cc2)CC1	IC50	< 50 µM
CN1CCC(N2CCN(Cc3ccc(CN4CCCN(C)CC4)cc3)CC2)CC1	IC50	< 50 µM
CN1CCCN(Cc2ccc(-c3cccc4ccccc34)cc2)CC1	IC50	< 50 µM

Exercise: Name the recorded IC50 of the item `CN1CCCN(Cc2ccc(CN3CCC(N4CCCC4)CC3)cc2)CC1` in your answer.
Solution: < 0.2 µM

Exercise: Return the recorded IC50 value; entry: `CN1CCCN(Cc2ccc(N3CCCC3=O)cc2)CC1`
Solution: < 50 µM

====

measured target: truncated form of human Choline kinase α1 that includes residues 75-457 (Homo sapiens, UniProt P35790)
Construct: made in house
assay comment: Kinase Assay, coupled (ATP regeneration) LDH/PK assay, NADH absorbance
Format: biochemical
stated conditions: Examples not designated with an asterisk; footnote prints version 1 of the Kinase Assay; read-out: IC50
# IC50 per record follows

line notation	IC50
CN1CCCN(Cc2ccc(-c3ccc4cn[nH]c4c3)c(C#N)c2)CC1	< 100 nM
COCCN1CCN(C(=O)c2ccc(-c3ccc(CN4CCCN(C)CC4)cc3C#N)cc2)CC1	< 500 nM
CN1CCCN(Cc2ccc(-c3ccc(C(=O)N4CCCN(C)CC4)cc3-c3ccncc3)c(C#N)c2)CC1	< 200 nM
CN1CCCN(Cc2ccc(-c3ccc(CN4CCCN(C)CC4)c(C#N)c3)cc2)CC1	< 500 nM

Next up:
Exercise: Note down IC50 recorded for `CN1CCCN(Cc2ccc(-c3ccc(C(=O)N4CCCN(C)CC4)cc3N)c(C#N)c2)CC1`
Solution: < 200 nM
